Biological target: T1, human CD73 (huCD73) protein, antigen of the Biacore assay (human, UniProt P21589 27-547, limits assumed)
T1 construct: also called human CD73 antigen
T1 sequence (looked up): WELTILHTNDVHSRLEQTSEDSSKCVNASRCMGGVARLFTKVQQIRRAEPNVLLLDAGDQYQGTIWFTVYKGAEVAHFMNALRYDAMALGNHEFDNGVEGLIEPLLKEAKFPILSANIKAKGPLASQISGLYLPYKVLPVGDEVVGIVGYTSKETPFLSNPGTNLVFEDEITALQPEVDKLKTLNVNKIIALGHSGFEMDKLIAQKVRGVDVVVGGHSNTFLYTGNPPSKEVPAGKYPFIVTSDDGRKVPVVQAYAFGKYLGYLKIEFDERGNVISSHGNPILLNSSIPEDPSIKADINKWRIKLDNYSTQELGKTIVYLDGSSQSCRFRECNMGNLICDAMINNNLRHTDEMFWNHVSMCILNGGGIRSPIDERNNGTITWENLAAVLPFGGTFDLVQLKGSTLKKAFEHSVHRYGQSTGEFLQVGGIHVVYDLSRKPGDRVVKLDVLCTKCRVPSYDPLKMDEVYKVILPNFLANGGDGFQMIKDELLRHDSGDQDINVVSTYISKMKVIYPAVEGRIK
Assay: SPR Biacore T200; antibody captured on Protein A chip, CD73 in flow; 1:1 Langmuir
OBSERVED PROPERTY: kon (M⁻¹ s⁻¹)
Respond with the bare value in M⁻¹ s⁻¹.

| BINDER | kon / M⁻¹ s⁻¹ |
| --- | --- |
| Hab127.24 (antibody, V domains shown, VL2 + VH4; recombined with human heavy and light constant regions) VH: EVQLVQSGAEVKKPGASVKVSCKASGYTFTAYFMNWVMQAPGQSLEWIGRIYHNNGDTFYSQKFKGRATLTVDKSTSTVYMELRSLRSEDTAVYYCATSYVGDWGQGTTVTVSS VL: DIQMTQSPSSLSASVGDRVTITCRASQDIGDSLNWLQQKPGKAPKRLIYATSSLDSGVPSRFSGSGSGTEYTLTISSLQPEDFATYYCLQYASFPWTFGGGTKVEIK | 160000 |
| Hab127.31h (antibody, V domains shown, VL3 + VH1h, HCDR2 hot-spot variant; full-length antibody) VH: EVQLVQSGAEVKKPGASVKVSCKASGYTFTAYFMNWVRQAPGQGLEWMGRIYHLNVDTFYSQKFKGRVTMTVDKSTSTVYMELSSLRSEDTAVYYCATSYVGDWGQGTTVTVSS VL: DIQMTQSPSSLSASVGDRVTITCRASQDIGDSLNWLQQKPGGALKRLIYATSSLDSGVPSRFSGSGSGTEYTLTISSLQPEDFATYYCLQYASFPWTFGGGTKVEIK | 151000 |

Continue with the next binder.
Challenge: Sample Hab108.33 (antibody, V domains shown, VL3 + VH3; full-length antibody) VH: EVTLKESGPVLVKPTETLTLTCTVSGFSLSSYGIQWVRQPPGKLLEWLGVIWSGGSADYNAAFISRLTISKDTSKSQVVLTMTNMDPVDTATYYCAGQYGSVWGQGTLVTVSS VL: DIQMTQSPSSLSASVGDRVTITCRASQDIGDRLNWLQQKPGGAIKRLIYATSSLDSGVPSRFSGSGSGTEYTLTISSLQPEDFATYYCLQYAGSWTFGGGTKVEIK — what was its kon?
Response given: 255000

Hey, just so you know, these numbers are from patent US20220220218A1.
